biological target: Plasminogen (Homo sapiens, UniProt P00747); assay: Inhibition plasmin in human mast cells
Sequence (P00747 97-580 limits assumed): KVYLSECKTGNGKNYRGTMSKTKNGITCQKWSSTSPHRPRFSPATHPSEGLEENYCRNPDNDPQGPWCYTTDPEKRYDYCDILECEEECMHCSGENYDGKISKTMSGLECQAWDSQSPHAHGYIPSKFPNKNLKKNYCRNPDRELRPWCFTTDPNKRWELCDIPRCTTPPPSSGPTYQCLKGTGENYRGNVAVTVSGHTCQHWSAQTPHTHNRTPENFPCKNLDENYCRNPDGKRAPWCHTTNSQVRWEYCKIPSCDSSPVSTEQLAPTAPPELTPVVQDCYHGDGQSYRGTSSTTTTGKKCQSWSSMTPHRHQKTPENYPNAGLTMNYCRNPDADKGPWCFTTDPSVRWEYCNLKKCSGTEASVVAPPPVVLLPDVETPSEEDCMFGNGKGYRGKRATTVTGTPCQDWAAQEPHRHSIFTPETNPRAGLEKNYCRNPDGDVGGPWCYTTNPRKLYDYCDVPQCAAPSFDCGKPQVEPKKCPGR
Sequence (P00747 581-810 limits assumed): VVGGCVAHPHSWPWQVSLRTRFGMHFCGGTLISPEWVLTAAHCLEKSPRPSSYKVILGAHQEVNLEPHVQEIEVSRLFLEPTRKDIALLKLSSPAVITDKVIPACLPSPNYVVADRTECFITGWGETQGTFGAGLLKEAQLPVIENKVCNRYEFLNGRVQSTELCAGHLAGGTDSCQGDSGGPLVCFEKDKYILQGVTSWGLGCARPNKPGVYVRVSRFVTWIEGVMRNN
For each record, write down the corresponding Ki.
Give the number; µM is assumed, so skip it.

Prompt: Look up Ki: N=C(N)c1ccc(C(=O)NCC2CCN(C(=O)OCc3ccc(COC(=O)N4CCC(CNC(=O)c5ccc(C(=N)N)cc5)CC4)cc3)CC2)cc1
Response: 0.006

Prompt: Requested field: Ki. Item: N=C(N)c1ccc(C(=O)NCC2CCN(C(=O)O[C@H]3CCC[C@@H](OC(=O)N4CCN(C(=O)CCCC5CCNCC5)CC4)CCC3)CC2)cc1
Response: 320

Prompt: Dear colleague, I am looking for the recorded Ki of the following compound: N=C(N)c1ccc(CNC(=O)N2CCN(C(=O)O[C@H]3CCC[C@@H](OC(=O)N4CCN(C(=O)NCCC5CCNCC5)CC4)CCC3)CC2)cc1
Response: 287

Prompt: Give its Ki value. Item: N=C(N)c1ccc(C(=O)NCC2CCN(C(=O)O[C@H]3CCC[C@@H](OC(=O)N4CCN(C(=O)NCCC5CCNCC5)CC4)CCC3)CC2)cc1
Response: 279

Data provenance is ChEMBL document CHEMBL1134801.
